# ASSAY SUMMARY: gradient 5% acetonitrile 3 min, to 50% in 2 min, to 85% in 15 min, held 3 min, 100 µL/min
# CONDITION LABEL: column: Zorbax Extend-C18 2.1 x 50 mm; eluents: water / acetonitrile, 0.1% formic acid
METRIC NAME: RP-LC retention time (s)

Answered examples (5):
O=C(c1cnc2ccccc2n1)N1CCN(Cc2nc(-c3ccc(F)cc3)cs2)CC1	719
CCOC(=O)c1cccc(NC2=NS(=O)(=O)C(c3ccc(OC)cc3)=C2C)c1	965
CCN1C(=O)COc2ccc(-c3nc(NC(=O)c4ccccc4C)sc3C)cc21	1010
O=C(Cn1nc2c(N3CCCCCC3)nccn2c1=O)Nc1ccc(F)cc1F	705
Cc1cccc(N2C(=O)NC3CC2(C)Oc2ccccc23)c1 (centres undefined)	852

A = O=C1C(O)C2(CCCCC2)N1C1CCN(Cc2ccc(F)c(F)c2)CC1 (centres undefined)
B = COc1ccc(NC(=O)Cn2nc(N3CCCC3)c3ccccc3c2=O)cc1
C = CCc1ccc(-c2noc(Cn3c(=O)n(Cc4ccccc4)c(=O)c4sccc43)n2)cc1
Sort these compounds on RP-LC retention time so the largest reading comes first. Quick reminder: the answer is the labels in the order asked.
C, B, A
(C: 1210 s, B: 847 s, A: 548 s)

---

# ASSAY SUMMARY: gradient 5% acetonitrile 3 min, to 50% in 2 min, to 85% in 15 min, held 3 min, 100 µL/min
# CONDITION LABEL: column: Zorbax Extend-C18 2.1 x 50 mm; eluents: water / acetonitrile, 0.1% formic acid
METRIC NAME: RP-LC retention time (s)

Answered examples (6):
CC(C)c1nc2cc3c(cc2n1CC(=O)Nc1ccccc1)OCCO3	674
O=C(c1ccco1)N1CCc2cc(-c3ccno3)ccc21	815
COc1ccc(CCc2nc3nccc(-c4cc(OC)c(OC)c(OC)c4)n3n2)cc1	895
O=C(Cn1nc(-n2cccn2)ccc1=O)Nc1cc(C(F)(F)F)ccc1Cl	730
CCOC(=O)c1nnc2c(-c3ccc(F)cc3)c(C)nn2c1N	857
COc1ccc(CC(=O)Nc2ccc(-c3cn4ccc(C)nc4n3)cc2)cc1	639

a = O=C(Nc1nnc(C2CC(=O)N(c3ccc(F)cc3)C2)o1)c1ccc(C(F)(F)F)cc1 (stereo not given)
b = CC(C)Cc1csc(-c2csc(S(=O)(=O)NC3CCCCC3)c2)n1
Between a and b , which one shows the larger RP-LC retention time value? State the label of the item chosen.
b

A = COc1ccc(OC)c(S(=O)(=O)N2CCc3nn(CC4CC4)c(=O)n3CC2)c1
B = CCCc1noc(-c2ccc3nnc(CC(=O)Nc4ccc(C)cc4F)n3c2)n1
Between A and B , which one shows the larger RP-LC retention time value? State the label of the item chosen.
B
(B: 940 s, A: 598 s)

I = COc1ccc(C(=O)NC(C)C(=O)Nc2nc3ccccc3[nH]2)cc1 (stereo not given)
II = Cc1ccc(Sc2nccnc2N2CCCC(C(=O)NCc3cc(F)cc(F)c3)C2)cc1 (stereo not given)
Between I and II , which one shows the larger RP-LC retention time value? State the label of the item chosen.
II

---

# ASSAY SUMMARY: gradient 5% acetonitrile 3 min, to 50% in 2 min, to 85% in 15 min, held 3 min, 100 µL/min
# CONDITION LABEL: column: Zorbax Extend-C18 2.1 x 50 mm; eluents: water / acetonitrile, 0.1% formic acid
METRIC NAME: RP-LC retention time (s)

CCOc1ccc(CC(=O)N2CCC3(CC2)N=C(c2ccc(C)cc2)NO3)cc1	871
O=C(Nc1cnc(-c2cccc(Cl)c2)nc1)C1CCCC1	1100
Cc1sc(-c2noc(C3CCC3)n2)cc1S(=O)(=O)N1CCC(C(=O)NCc2ccco2)CC1	1010

a = Cc1cc(C)c(S(=O)(=O)N2CCCC2c2nc(-c3cccc(F)c3)no2)cc1C (stereo not given)
b = CN(CC1COCCO1)c1ccc(C(=O)O)cc1NC(=O)c1ccccc1Cl (stereo not given)
Hello, I am sorting some records. Could you say if a or b has the smaller RP-LC retention time value? State the label of the item chosen.
b
